test system: Penicillium chrysogenum; assay: Antifungal activity against Penicillium chrysogenum assessed as zone of inhibition at 100 ug/well after 48 hrs by agar well diffusion method; format: functional; conditions: read-out: DIZ
ENDPOINT: zone of inhibition at 100 µg/disc (mm)
Quick reminder: number only, in mm, skip the unit.

Solved cases below.
Cc1ccc(/C=C/S(=O)(=O)NC(=O)c2cccs2)cc1
10
O=C(NS(=O)(=O)/C=C/c1ccc([N+](=O)[O-])cc1)c1ccc(Cl)s1
28
O=C(NS(=O)(=O)c1c(-c2ccccc2)nn(-c2ccccc2)c1-c1ccc([N+](=O)[O-])cc1)c1ccc(Cl)s1
29

stdin: Report zone of inhibition at 100 µg/disc for O=C(NS(=O)(=O)c1c(-c2ccccc2)nn(-c2ccccc2)c1-c1ccccc1)c1cccs1 please.
stdout: 16

stdin: Report zone of inhibition at 100 µg/disc for O=C(NS(=O)(=O)/C=C/c1ccc([N+](=O)[O-])cc1)c1cccs1 please.
stdout: 27

stdin: Report zone of inhibition at 100 µg/disc for O=C(NS(=O)(=O)c1c(-c2ccccc2)nn(-c2ccccc2)c1-c1ccccc1)c1ccc(Cl)s1 please.
stdout: 17

stdin: Report zone of inhibition at 100 µg/disc for CC(=O)N1CCN(c2ccc(OCC3COC(Cn4ccnc4)(c4ccc(Cl)cc4Cl)O3)cc2)CC1 (configuration not stated) please.
stdout: 38

---

system: Aspergillus niger; assay: Antifungal activity against Aspergillus niger assessed as zone of inhibition at 75 ug/well after 48 hrs by agar well diffusion method; assay type: functional; conditions: read-out: DIZ
ENDPOINT: zone of inhibition at 75 µg/disc (mm)
Quick reminder: number only, in mm, skip the unit.

Solved cases below.
O=C(NS(=O)(=O)C1C(c2ccccc2)=NOC1c1ccc([N+](=O)[O-])cc1)c1cccs1 (centres undefined)
10
O=C(NS(=O)(=O)C1C(c2ccccc2)=NN(c2ccccc2)C1c1ccc([N+](=O)[O-])cc1)c1cccs1 (centres undefined)
12
Cc1ccc(-c2c(S(=O)(=O)NC(=O)c3ccc(Cl)s3)c(-c3ccccc3)nn2-c2ccccc2)cc1
19

stdin: Report zone of inhibition at 75 µg/disc for O=C(NS(=O)(=O)/C=C/c1ccc([N+](=O)[O-])cc1)c1cccs1 please.
stdout: 25

stdin: Report zone of inhibition at 75 µg/disc for O=C(NS(=O)(=O)c1c(-c2ccccc2)nn(-c2ccccc2)c1-c1ccccc1)c1ccc(Cl)s1 please.
stdout: 21

stdin: Report zone of inhibition at 75 µg/disc for O=C(NS(=O)(=O)c1c(-c2ccccc2)noc1-c1ccccc1)c1ccc(Cl)s1 please.
stdout: 24

stdin: Report zone of inhibition at 75 µg/disc for O=C(NS(=O)(=O)c1c(-c2ccccc2)noc1-c1ccccc1)c1cccs1 please.
stdout: 20

stdin: Report zone of inhibition at 75 µg/disc for O=C(NS(=O)(=O)c1c(-c2ccccc2)nn(-c2ccccc2)c1-c1ccc([N+](=O)[O-])cc1)c1cccs1 please.
stdout: 28

stdin: Report zone of inhibition at 75 µg/disc for O=C(NS(=O)(=O)/C=C/c1ccccc1)c1cccs1 please.
stdout: 13

---

system: Bacillus subtilis; assay: Bactericidal activity against Bacillus subtilis incubated for 24 hrs followed by replating on sterile nutrient broth and incubated for 24 hrs by broth dilution test; assay type: functional
Measured MBC of individual entries
Quick reminder: number only, in µg/mL, skip the unit.

O=C(NS(=O)(=O)c1c(-c2ccccc2)noc1-c1ccc([N+](=O)[O-])cc1)c1ccc(Cl)s1
12.5

stdin: Report MBC for O=C(NS(=O)(=O)c1c(-c2ccccc2)nn(-c2ccccc2)c1-c1ccc([N+](=O)[O-])cc1)c1ccc(Cl)s1 please.
stdout: 12.5

---

Measured MBC of individual entries
system: Pseudomonas aeruginosa; test: Bactericidal activity against Pseudomonas aeruginosa incubated for 24 hrs followed by replating on sterile nutrient broth and incubated for 24 hrs by broth dilution test; assay type: functional
// unit must come after the numeric part

Solved cases below.
O=C(NS(=O)(=O)/C=C/c1ccc([N+](=O)[O-])cc1)c1cccs1
100 µg/mL
O=C(NS(=O)(=O)c1c(-c2ccccc2)noc1-c1ccc([N+](=O)[O-])cc1)c1cccs1
50 µg/mL
O=C(NS(=O)(=O)c1c(-c2ccccc2)nn(-c2ccccc2)c1-c1ccc([N+](=O)[O-])cc1)c1ccc(Cl)s1
50 µg/mL
O=C(NS(=O)(=O)/C=C/c1ccc([N+](=O)[O-])cc1)c1ccc(Cl)s1
100 µg/mL

stdin: Report MBC for O=C(NS(=O)(=O)c1c(-c2ccccc2)noc1-c1ccc([N+](=O)[O-])cc1)c1ccc(Cl)s1 please.
stdout: 50 µg/mL

stdin: Report MBC for O=C(NS(=O)(=O)c1c(-c2ccccc2)nn(-c2ccccc2)c1-c1ccc([N+](=O)[O-])cc1)c1cccs1 please.
stdout: 100 µg/mL

---

tested on: Aspergillus niger; assay: Antifungal activity against Aspergillus niger assessed as zone of inhibition at 75 ug/well after 48 hrs by agar well diffusion method; format: functional; conditions: read-out: DIZ
Please note: 1 applies when zone of inhibition at 75 µg/disc is 10 mm or greater, and -1 applies otherwise.

Previously resolved entries follow.
O=C(NS(=O)(=O)c1c(-c2ccccc2)noc1-c1ccc([N+](=O)[O-])cc1)c1cccs1
1
Cc1ccc(C2C(S(=O)(=O)NC(=O)c3cccs3)C(c3ccccc3)=NN2c2ccccc2)cc1 (stereo not drawn)
-1
O=C(NS(=O)(=O)C1C(c2ccccc2)=NOC1c1ccccc1)c1ccc(Cl)s1 (stereo not drawn)
-1
O=C(NS(=O)(=O)C1C(c2ccccc2)=NOC1c1ccc([N+](=O)[O-])cc1)c1ccc(Cl)s1 (stereo not drawn)
1
Cc1ccc(-c2onc(-c3ccccc3)c2S(=O)(=O)NC(=O)c2cccs2)cc1
1

Then there is this compound:
stdin: Form field: zone of inhibition at 75 µg/disc at least 10 mm? Entry: Cc1ccc(/C=C/S(=O)(=O)NC(=O)c2ccc(Cl)s2)cc1
stdout: 1

---

system: Klebsiella pneumoniae; assay: Antimicrobial activity against Klebsiella pneumoniae assessed as zone of inhibition at 100 ug/well after 24 hrs by agar well diffusion method; assay type: functional; conditions: read-out: DIZ
ENDPOINT: zone of inhibition at 100 µg/disc (mm)
Quick reminder: number only, in mm, skip the unit.

Solved cases below.
O=C(NS(=O)(=O)c1c(-c2ccccc2)nn(-c2ccccc2)c1-c1ccc([N+](=O)[O-])cc1)c1cccs1
34
Cc1ccc(-c2c(S(=O)(=O)NC(=O)c3cccs3)c(-c3ccccc3)nn2-c2ccccc2)cc1
18
O=C(NS(=O)(=O)/C=C/c1ccccc1)c1ccc(Cl)s1
25

Proceeding to the next molecule to report its zone of inhibition at 100 µg/disc.
stdin: Report zone of inhibition at 100 µg/disc for Cc1ccc(/C=C/S(=O)(=O)NC(=O)c2cccs2)cc1 please.
stdout: 16

---

test system: Bacillus subtilis; experiment: Antimicrobial activity against Bacillus subtilis assessed as zone of inhibition at 100 ug/well after 24 hrs by agar well diffusion method; assay type: functional
Activity calls are given as the source filed them. The calls are words filed in the database; no cut-off is given here.
ENDPOINT: diameter of the inhibition zone (DIZ)

Cc1ccc(C2C(S(=O)(=O)NC(=O)c3ccc(Cl)s3)C(c3ccccc3)=NN2c2ccccc2)cc1 (stereo not given)
inactive
Cc1ccc(C2ON=C(c3ccccc3)C2S(=O)(=O)NC(=O)c2ccc(Cl)s2)cc1 (stereo not given)
inactive
Cc1ccc(C2C(S(=O)(=O)NC(=O)c3cccs3)C(c3ccccc3)=NN2c2ccccc2)cc1 (stereo not given)
inactive
O=C(NS(=O)(=O)C1C(c2ccccc2)=NN(c2ccccc2)C1c1ccccc1)c1cccs1 (stereo not given)
inactive

Proceeding to the next compound to report its diameter of the inhibition zone (DIZ).
stdin: Report diameter of the inhibition zone (DIZ) for Cc1ccc(C2ON=C(c3ccccc3)C2S(=O)(=O)NC(=O)c2cccs2)cc1 (stereo not given) please.
stdout: inactive

---

system: Staphylococcus aureus; assay: Antimicrobial activity against Staphylococcus aureus assessed as zone of inhibition at 75 ug/well after 24 hrs by agar well diffusion method; type: functional; details: read-out: DIZ
ENDPOINT: zone of inhibition at 75 µg/disc
// unit must come after the numeric part

Solved cases below.
Cc1ccc(/C=C/S(=O)(=O)NC(=O)c2ccc(Cl)s2)cc1
13 mm
O=C(NS(=O)(=O)/C=C/c1ccccc1)c1cccs1
16 mm

stdin: Report zone of inhibition at 75 µg/disc for O=C(NS(=O)(=O)c1c(-c2ccccc2)nn(-c2ccccc2)c1-c1ccc([N+](=O)[O-])cc1)c1ccc(Cl)s1 please.
stdout: 28 mm

stdin: Report zone of inhibition at 75 µg/disc for O=C(NS(=O)(=O)/C=C/c1ccc([N+](=O)[O-])cc1)c1cccs1 please.
stdout: 22 mm

stdin: Report zone of inhibition at 75 µg/disc for Cc1ccc(/C=C/S(=O)(=O)NC(=O)c2cccs2)cc1 please.
stdout: 11 mm

stdin: Report zone of inhibition at 75 µg/disc for O=C(NS(=O)(=O)/C=C/c1ccc([N+](=O)[O-])cc1)c1ccc(Cl)s1 please.
stdout: 24 mm

stdin: Report zone of inhibition at 75 µg/disc for O=C(N[C@H](CO)[C@H](O)c1ccc([N+](=O)[O-])cc1)C(Cl)Cl [CHLORAMPHENICOL] please.
stdout: 33 mm

stdin: Report zone of inhibition at 75 µg/disc for Cc1ccc(-c2c(S(=O)(=O)NC(=O)c3ccc(Cl)s3)c(-c3ccccc3)nn2-c2ccccc2)cc1 please.
stdout: 15 mm

stdin: Report zone of inhibition at 75 µg/disc for O=C(NS(=O)(=O)c1c(-c2ccccc2)nn(-c2ccccc2)c1-c1ccccc1)c1ccc(Cl)s1 please.
stdout: 21 mm
